Assay: Half life in rat at 5 mg/kg, po
Type: ADME, organism-based
Details: in vivo
# Lookup of reported half-life keyed by entry
Give the quantity in h, number only.

The compound listed as `CNC(=O)c1ccc2c3c1CCN3CCNC2` shows half-life equal to 1.51

The compound listed as `C[C@H]1CN2CCNCc3ccc(C(=O)NCC(F)F)c1c32` shows half-life equal to 2.5

###

Assay: Tmax in Cynomolgus monkey at 5 mg/kg, po
Format: ADME, organism-based, Macaca fascicularis
Details: in vivo
# Lookup of reported Tmax keyed by entry

CNC(=O)c1ccc2c3c1CCN3CCNC2; 2.33 h

We next turn to a different compound, shown below.
The compound listed as `C[C@H]1CN2CCNCc3ccc(C(=O)NCC(F)F)c1c32` shows Tmax equal to 3 h
